Experimental Details: Approximate solubility by stepwise dilution in solvents and solvent mixtures
Type: physicochemical
Condition Info: diisopropyl ether, 22 °C, organic solvent or mixture, thermodynamic from solid, diisopropyl ether, about 22° C., read-out: Solubility S
Measured Endpoint: solubility

INPUT: Requested field: solubility. Item: CC(C)C(=O)N1CCC[C@]12CN([C@H](C(N)=O)[C@@H](C)O)C2=O [Form MH]
OUTPUT: < 1000 µg/mL

###

Experimental Details: Approximate solubility by stepwise dilution in solvents and solvent mixtures
Assay type: physicochemical
Condition Info: ethyl acetate saturated with water, 22 °C, organic solvent or mixture, thermodynamic from solid, ethyl acetate saturated with water, about 22° C., read-out: Solubility S
Measured Endpoint: solubility

INPUT: Using the record for CC(C)C(=O)N1CCC[C@]12CN([C@H](C(N)=O)[C@@H](C)O)C2=O [Form MH] , report its solubility.
OUTPUT: 6000 to 8000 µg/mL

###

Experimental Details: Approximate solubility by stepwise dilution in solvents and solvent mixtures
Format: physicochemical
Condition Info: tetrahydrofuran, 22 °C, organic solvent or mixture, thermodynamic from solid, tetrahydrofuran, about 22° C., read-out: Solubility S
Measured Endpoint: solubility

INPUT: Record request: solubility value, item CC(C)C(=O)N1CCC[C@]12CN([C@H](C(N)=O)[C@@H](C)O)C2=O [Form MH]
OUTPUT: 31 to 36 mg/mL

###

Experimental Details: Solubility and stability of saturated solutions in pH 2-8 buffers at 25° C. (HPLC)
Type: physicochemical
Condition Info: aqueous buffer, pH 7, aqueous buffer, thermodynamic from solid; pH of about 7; ca. 25° C.; after about 7 days; read-out: solubility in an aqueous solvent
Measured Endpoint: solubility at 7 days

INPUT: Requested field: solubility at 7 days. Item: CC(C)C(=O)N1CCC[C@]12CN([C@H](C(N)=O)[C@@H](C)O)C2=O [Form MH]
OUTPUT: ~52.3 mg/mL

###

Experimental Details: Approximate solubility by stepwise dilution in solvents and solvent mixtures
Format: physicochemical
Condition Info: aniline, 22 °C, organic solvent or mixture, thermodynamic from solid, aniline, about 22° C., read-out: Solubility S
Measured Endpoint: solubility

INPUT: # get_value(readout='solubility', item= CC(C)C(=O)N1CCC[C@]12CN([C@H](C(N)=O)[C@@H](C)O)C2=O [Form MH] )
OUTPUT: > 200 mg/mL

###

Experimental Details: Approximate solubility by stepwise dilution in solvents and solvent mixtures
Type: physicochemical
Condition Info: methyl ethyl ketone, 22 °C, organic solvent or mixture, thermodynamic from solid, methyl ethyl ketone, about 22° C., read-out: Solubility S
Experimental: Approximate solubilities were determined by a stepwise dilution of a suspension of about 10 mg of substance in 0.05 mL of solvent. If the substance was not dissolved by addition of a total of at least 10 ml solvent, the solubility was indicated as <1 mg/mL. […] The approximate solubility of crystalline, monohydrate Form MH of NYX-2925 across a range of solvents and solvent mixtures (expressed in volume ratios measured at about 22° C.) is provided in Table 8, below.
Measured Endpoint: solubility

INPUT: Name the reported solubility value associated with the compound CC(C)C(=O)N1CCC[C@]12CN([C@H](C(N)=O)[C@@H](C)O)C2=O [Form MH]
OUTPUT: 32 to 38 mg/mL

###

Experimental Details: Solubility and stability of saturated solutions in pH 2-8 buffers at 25° C. (HPLC)
Assay type: physicochemical
Condition Info: aqueous buffer, pH 3, aqueous buffer, thermodynamic from solid; pH of about 3; ca. 25° C.; after about 7 days; read-out: solubility in an aqueous solvent
Measured Endpoint: solubility at 7 days

INPUT: Quick one: solubility at 7 days of CC(C)C(=O)N1CCC[C@]12CN([C@H](C(N)=O)[C@@H](C)O)C2=O [Form MH] ?
OUTPUT: ~52.4 mg/mL

###

Experimental Details: Approximate solubility by stepwise dilution in solvents and solvent mixtures
Type: physicochemical
Condition Info: ethyl acetate, 22 °C, organic solvent or mixture, thermodynamic from solid, ethyl acetate, about 22° C., read-out: Solubility S
Measured Endpoint: solubility

INPUT: Which solubility value belongs to CC(C)C(=O)N1CCC[C@]12CN([C@H](C(N)=O)[C@@H](C)O)C2=O [Form MH] ?
OUTPUT: 13 to 15 mg/mL

###

Experimental Details: Solubility and stability of saturated solutions in pH 2-8 buffers at 25° C. (HPLC)
Assay type: physicochemical
Condition Info: aqueous buffer, pH 8, aqueous buffer, thermodynamic from solid; pH of about 8; ca. 25° C.; after about 1 day; read-out: solubility in an aqueous solvent
Measured Endpoint: solubility at 1 day

INPUT: # lookup: solubility at 1 day of CC(C)C(=O)N1CCC[C@]12CN([C@H](C(N)=O)[C@@H](C)O)C2=O [Form MH]
OUTPUT: ~52.7 mg/mL

###

Experimental Details: Solubility and stability of saturated solutions in pH 2-8 buffers at 25° C. (HPLC)
Format: physicochemical
Condition Info: aqueous buffer, pH 2, aqueous buffer, thermodynamic from solid; pH of about 2; ca. 25° C.; after about 4 days; read-out: solubility in an aqueous solvent
Experimental: Crystalline, monohydrate Form MH of (2S,3R)-3-hydroxy-2-((R)-5-isobutyryl-1-oxo-2,5-diazaspiro[3.4]octan-2-yl)butanamide was prepared as follows. Saturated solutions of 3-hydroxy-2-(5-isobutyryl-1-oxo-2,5-diazaspiro[3.4]octan-2-yl)butanamide were prepared in pH 2, pH 3, pH 5, pH 7, and pH 8 buffers and were stirred at 25° C. […] The supernatant was analyzed for sample concentration by HPLC, and the residual solids were analyzed by XRPD after 1 day, 4 days, and 7 days.
Measured Endpoint: solubility at 4 days

INPUT: Could you tell me which solubility at 4 days is on file for CC(C)C(=O)N1CCC[C@]12CN([C@H](C(N)=O)[C@@H](C)O)C2=O [Form MH] ?
OUTPUT: ~53.5 mg/mL

###

Experimental Details: Approximate solubility by stepwise dilution in solvents and solvent mixtures
Type: physicochemical
Condition Info: 1/1 methanol/water (v/v), 22 °C, aqueous with cosolvent or surfactant or cyclodextrin, thermodynamic from solid, 1/1 methanol/water (volume ratio), about 22° C., read-out: Solubility S
Measured Endpoint: solubility

INPUT: Suppose we examine the compound CC(C)C(=O)N1CCC[C@]12CN([C@H](C(N)=O)[C@@H](C)O)C2=O [Form MH] ; what solubility value has been reported?
OUTPUT: > 200 mg/mL

###

Experimental Details: Solubility and stability of saturated solutions in pH 2-8 buffers at 25° C. (HPLC)
Format: physicochemical
Condition Info: aqueous buffer, pH 8, aqueous buffer, thermodynamic from solid; pH of about 8; ca. 25° C.; after about 4 days; read-out: solubility in an aqueous solvent
Measured Endpoint: solubility at 4 days

INPUT: Field request: solubility at 4 days | item: CC(C)C(=O)N1CCC[C@]12CN([C@H](C(N)=O)[C@@H](C)O)C2=O [Form MH]
OUTPUT: ~51.6 mg/mL

###

Experimental Details: Approximate solubility by stepwise dilution in solvents and solvent mixtures
Format: physicochemical
Condition Info: isopropyl acetate, 22 °C, organic solvent or mixture, thermodynamic from solid, isopropyl acetate, about 22° C., read-out: Solubility S
Measured Endpoint: solubility

INPUT: Item CC(C)C(=O)N1CCC[C@]12CN([C@H](C(N)=O)[C@@H](C)O)C2=O [Form MH] has what recorded solubility?
OUTPUT: 5000 to 6000 µg/mL

###

Experimental Details: Solubility and stability of saturated solutions in pH 2-8 buffers at 25° C. (HPLC)
Assay type: physicochemical
Condition Info: aqueous buffer, pH 5, aqueous buffer, thermodynamic from solid; pH of about 5; ca. 25° C.; after about 1 day; read-out: solubility in an aqueous solvent
Measured Endpoint: solubility at 1 day

INPUT: Endpoint output: solubility at 1 day of CC(C)C(=O)N1CCC[C@]12CN([C@H](C(N)=O)[C@@H](C)O)C2=O [Form MH] . Value?
OUTPUT: ~52.5 mg/mL

###

Experimental Details: Approximate solubility by stepwise dilution in solvents and solvent mixtures
Type: physicochemical
Condition Info: triethylamine, 22 °C, organic solvent or mixture, thermodynamic from solid, triethylamine, about 22° C., read-out: Solubility S
Measured Endpoint: solubility

INPUT: Reported solubility for CC(C)C(=O)N1CCC[C@]12CN([C@H](C(N)=O)[C@@H](C)O)C2=O [Form MH] : what is it?
OUTPUT: < 1000 µg/mL

###

Experimental Details: Solubility of anhydrous crystalline forms in water and isopropyl acetate at room temperature
Type: physicochemical
Condition Info: water, 22 °C, water, room temperature (about 22° C.); read-out: solubility in water
Measured Endpoint: solubility

INPUT: So what's the measured solubility for this one? CC(C)C(=O)N1CCCC12CN(C(C(N)=O)C(C)O)C2=O (stereo not shown) [Form A]
OUTPUT: 54 to 55 mg/mL

###

Experimental Details: Approximate solubility by stepwise dilution in solvents and solvent mixtures
Type: physicochemical
Condition Info: dimethyl sulfoxide, 22 °C, organic solvent or mixture, thermodynamic from solid, dimethyl sulfoxide, about 22° C., read-out: Solubility S
Measured Endpoint: solubility

INPUT: Given the compound CC(C)C(=O)N1CCC[C@]12CN([C@H](C(N)=O)[C@@H](C)O)C2=O [Form MH] , what is its reported solubility?
OUTPUT: > 200 mg/mL
